System: Fadu cells
protocol: CellTiter-Glo luminescent cell viability assay, Fadu
particulars: Homo sapiens, FaDu, 72 h, read-out: Fadu Cell viability (% of controll), 1 μM; 72 h; dose–response, individual replicates
measurementType: viability at 1 µM (%)
Note: unit % is implicit; provide only the numeric part.

State viability at 1 µM (Fadu cells) of Cc1ccccc1CN1C(=O)C2=C(CCN(Cc3ccccc3)C2)N2CCN=C12 [ONC201, reference compound] .
85

State viability at 1 µM (Fadu cells) of CNCC#Cc1cccc(CN2C(=O)C3=C(CCN(Cc4ccc(-n5cc(-c6cccc(F)c6)nn5)cc4)C3)N3CCN=C23)c1 [43a] .
112

State viability at 1 µM (Fadu cells) of CNCC#Cc1cccc(CN2C(=O)C3=C(CCN(Cc4ccc(-n5cc(-c6cc(F)cc(F)c6)nn5)cc4)C3)N3CCN=C23)c1 [43c] .
97

State viability at 1 µM (Fadu cells) of NCC#Cc1ccc(CN2C(=O)C3=C(CCN(Cc4ccc(-n5cc(-c6ccccc6)nn5)cc4)C3)N3CCN=C23)cc1 [I/B, reference compound] .
112

State viability at 1 µM (Fadu cells) of CNCC#Cc1cccc(CN2C(=O)C3=C(CCN(Cc4ccc(-n5cc(-c6ccc(F)cc6)nn5)cc4)C3)N3CCN=C23)c1 [43b] .
102

State viability at 1 µM (Fadu cells) of CNCC#Cc1cccc(CN2C(=O)C3=C(CCN(Cc4ccc(-n5cc(-c6ccccc6)nn5)cc4)C3)N3CCN=C23)c1 [38b] .
113
